- EXPERIMENT: ATG_Ets_CIS: Attagene CIS-FACTORIAL HepG2 Assay for human Erythroblast Transformation Specific (ETS) (AID 2282941)
- PARTICULARS: HepG2 ETS cis-reporter transcription, actives raise or lower the signal
Active and inactive are the calls of the source. The calls were made as follows: active = hit-call score of the fitted dose curve at least 0.9, where 1 is the maximum; inactive = score below 0.9.
Outcome field: choose from active, inactive

Below, 5 molecules whose answers are already recorded.
INSERT INTO measurements (molecule, qualitative_label) VALUES
  ('CCOc1cc(Oc2ccc(C(F)(F)F)cc2Cl)ccc1[N+](=O)[O-]', 'inactive'),
  ('C#CCOS(=O)OC1CCCCC1Oc1ccc(C(C)(C)C)cc1 (stereo not drawn)', 'inactive'),
  ('CCCCOC(=O)c1ccccc1C(=O)OCCCC', 'inactive'),
  ('COC(=O)C=C(C)OP(=O)(OC)OC', 'inactive'),
  ('COc1cnc(OC)n2nc(NS(=O)(=O)c3c(OCC(F)F)cccc3C(F)(F)F)nc12', 'inactive');

## Input Hi team, can someone confirm the assay call for O=C(Nc1ccccc1)Nc1ccnc(Cl)c1 ?
## Output inactive

## Input Record: COP(N)(=O)SC (stereo not drawn)
## Output inactive

## Input Repeat with CC(Oc1ccc(Cl)cc1Cl)C(=O)O (stereo not drawn)
## Output inactive

## Input Then what about the molecule C=CC1(C)OC(=O)N(c2cc(Cl)cc(Cl)c2)C1=O (stereo not drawn) ?
## Output inactive

## Input Further, for Cc1ccc(-c2c(Cl)nc(C#N)n2S(=O)(=O)N(C)C)cc1 ?
## Output inactive

## Input And then CC(C)(C)c1ccc(CSc2cnn(C(C)(C)C)c(=O)c2Cl)cc1 , what is it?
## Output inactive

## Input Same lookup for COC(=O)N(OC)c1ccccc1COc1ccn(-c2ccc(Cl)cc2)n1 , please.
## Output active

## Input Follow-up item: COC(=O)c1ccccc1C(=O)OC
## Output inactive

====

- Read-out: Matrix Metallopeptidase 1 (MMP1), MMP1 (gene 4312)
- EXPERIMENT: BSK_BE3C_MMP1: BioMAP Diversity Plus: BE3C Assay for Matrix Metallopeptidase 1 (MMP1) Biomarker Activity (AID 2283024)
- PARTICULARS: primary human bronchial epithelial cells; actives raise or lower the signal
Calls of active or inactive are those of the source. Rule for the calls: active = hit-call score of the fitted dose curve at least 0.9, where 1 is the maximum; inactive = score below 0.9.
Select the matching outcome among 1 (yes) (active), 0 (no) (inactive)

The following molecules have reported results that may help.
INSERT INTO assay_data (molecule, qualitative_label) VALUES
  ('N#Cc1cc(Br)c(O)c(Br)c1', '0 (no)'),
  ('CCOP(=S)(OCC)SCn1c(=O)oc2cc(Cl)ccc21', '0 (no)'),
  ('COc1cnc(OC)n2nc(NS(=O)(=O)c3c(OCC(F)F)cccc3C(F)(F)F)nc12', '0 (no)');

## Input Assay result, entry CC(C)C1(C)N=C(c2nc3ccccc3cc2C(=O)O)NC1=O (configuration not stated) — outcome?
## Output 0 (no)

## Input Please answer likewise for COP(=S)(OC)Oc1nc(Cl)c(Cl)cc1Cl
## Output 0 (no)

## Input Queued: CC1=C(C(=O)Nc2ccccc2)SCCO1
## Output 0 (no)

## Input Queued: Fc1ccc(Oc2ccnc3cc(Cl)cc(Cl)c23)cc1
## Output 1 (yes)

====

- EXPERIMENT: CCTE_Shafer_MEA_acute_burst_percentage_mean: CCTE's Neural Acute Assay for Percentage of Spikes in a Burst, Shafer Lab (AID 2284017);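 as to AC50: curve fitted for loss of signal so potency reflects decreased burst percentage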
Active and inactive are the calls of the source. How the source made its calls: active means hit-call score of the fitted dose curve at least 0.9, where 1 is the maximum; inactive means score below 0.9.
QUANTITY_MEASURED: AC50

Solved cases (5 shown):
INSERT INTO measurements (compound, observed_value) VALUES
  ('N#CC(CCc1ccc(Cl)cc1)(Cn1cncn1)c1ccccc1 (centres undefined)', 'inactive'),
  ('C#CCOS(=O)OC1CCCCC1Oc1ccc(C(C)(C)C)cc1 (centres undefined)', '32 µM (active)'),
  ('CCCC1COC(Cn2cncn2)(c2ccc(Cl)cc2Cl)O1 (centres undefined)', '14.6 µM (active)'),
  ('CO/C=C(/C(=O)OC)c1ccccc1Oc1cc(Oc2ccccc2C#N)ncn1', '10.2 µM (active)'),
  ('CC1COC(Cn2cncn2)(c2ccc(Oc3ccc(Cl)cc3)cc2Cl)O1 (centres undefined)', '4.77 µM (active)');

Here are 2 compounds. What values of AC50 were reported for them?
1. CC(C)Oc1cc(-n2nc(C(C)(C)C)oc2=O)c(Cl)cc1Cl
2. CNC(=O)ON=CC(C)(C)SC

## Output
inactive
inactive

====

- Read-out: Lipoprotein lipase (LPL), LPL (gene 4023)
- EXPERIMENT: LTEA_HepaRG_LPL: Life Technologies and Expression Analysis (LTEA) Assay for Lipoprotein lipase (LPL) using HepaRG (AID 2283515)
- PARTICULARS: mRNA level, 48 h; actives raise or lower the signal
Activity calls are given as the source filed them. The calls were made as follows: active = hit-call score of the fitted dose curve at least 0.9, where 1 is the maximum; inactive = score below 0.9.
Returns: one label drawn from active, inactive

Observe how each entry below is paired with its result.
INSERT INTO measurements (compound, qualitative_label) VALUES
  ('CC(Oc1ccc(Cl)cc1Cl)C(=O)O (stereo not drawn)', 'inactive'),
  ('CCc1nn(C)c(C(=O)NCc2ccc(C(C)(C)C)cc2)c1Cl', 'active'),
  ('CCOC(=O)C(Cl)Cc1cc(-n2nc(C)n(C(F)F)c2=O)c(F)cc1Cl (stereo not drawn)', 'inactive'),
  ('N#Cc1cc(Br)c(O)c(Br)c1', 'inactive'),
  ('COC(=O)c1ccccc1C(=O)OC', 'inactive');

## Input Short answer needed: outcome of this test for O=C(Nc1ccccc1)Nc1ccnc(Cl)c1 ?
## Output active

## Input Would you kindly repeat that for CCCCNC(=O)OCC#CI ?
## Output inactive

## Input What about OC(c1ccc(Cl)cc1)(c1cncnc1)c1ccccc1Cl (stereo not drawn) ?
## Output active

## Input And then CCCCC(CC)COC(=O)c1ccccc1C(=O)OCC(CC)CCCC (stereo not drawn) , what is it?
## Output inactive

====

- System: NCBI gene 100848466
- EXPERIMENT: NVS_NR_bPR: NovaScreen (NVS) Nuclear Receptor Binding Assay for bovine Progextron Receptor (PR) (AID 2283343)
Results filed as inconclusive are left out. The source made the active and inactive calls. The calls were made as follows: active = hit-call score of the fitted dose curve at least 0.9, where 1 is the maximum; inconclusive = response in the unintended direction; inactive = score below 0.9.
The reply should be one of these categories: active, inactive

Past entries and their recorded results:
INSERT INTO measurements (compound, qualitative_label) VALUES
  ('COP(=S)(OC)Oc1nc(Cl)c(Cl)cc1Cl', 'active'),
  ('CO/C=C(/C(=O)OC)c1ccccc1Oc1cc(Oc2ccccc2C#N)ncn1', 'inactive'),
  ('CCCCNC(=O)OCC#CI', 'inactive');

## Input Hi, sorry to bother you, what did the test record for CCCCC(CC)COC(=O)c1ccccc1C(=O)OCC(CC)CCCC (stereo unspecified) ?
## Output inactive

## Input Next entry: CNC(=O)ON=CC(C)(C)SC
## Output inactive

## Input # repeat for CCOP(=S)(OCC)SCn1c(=O)oc2cc(Cl)ccc21
## Output active

====

- Read-out: Fatty acid synthase (Homo sapiens) (UniProt P49327)
- Sequence (P49327 whole entry, looked up): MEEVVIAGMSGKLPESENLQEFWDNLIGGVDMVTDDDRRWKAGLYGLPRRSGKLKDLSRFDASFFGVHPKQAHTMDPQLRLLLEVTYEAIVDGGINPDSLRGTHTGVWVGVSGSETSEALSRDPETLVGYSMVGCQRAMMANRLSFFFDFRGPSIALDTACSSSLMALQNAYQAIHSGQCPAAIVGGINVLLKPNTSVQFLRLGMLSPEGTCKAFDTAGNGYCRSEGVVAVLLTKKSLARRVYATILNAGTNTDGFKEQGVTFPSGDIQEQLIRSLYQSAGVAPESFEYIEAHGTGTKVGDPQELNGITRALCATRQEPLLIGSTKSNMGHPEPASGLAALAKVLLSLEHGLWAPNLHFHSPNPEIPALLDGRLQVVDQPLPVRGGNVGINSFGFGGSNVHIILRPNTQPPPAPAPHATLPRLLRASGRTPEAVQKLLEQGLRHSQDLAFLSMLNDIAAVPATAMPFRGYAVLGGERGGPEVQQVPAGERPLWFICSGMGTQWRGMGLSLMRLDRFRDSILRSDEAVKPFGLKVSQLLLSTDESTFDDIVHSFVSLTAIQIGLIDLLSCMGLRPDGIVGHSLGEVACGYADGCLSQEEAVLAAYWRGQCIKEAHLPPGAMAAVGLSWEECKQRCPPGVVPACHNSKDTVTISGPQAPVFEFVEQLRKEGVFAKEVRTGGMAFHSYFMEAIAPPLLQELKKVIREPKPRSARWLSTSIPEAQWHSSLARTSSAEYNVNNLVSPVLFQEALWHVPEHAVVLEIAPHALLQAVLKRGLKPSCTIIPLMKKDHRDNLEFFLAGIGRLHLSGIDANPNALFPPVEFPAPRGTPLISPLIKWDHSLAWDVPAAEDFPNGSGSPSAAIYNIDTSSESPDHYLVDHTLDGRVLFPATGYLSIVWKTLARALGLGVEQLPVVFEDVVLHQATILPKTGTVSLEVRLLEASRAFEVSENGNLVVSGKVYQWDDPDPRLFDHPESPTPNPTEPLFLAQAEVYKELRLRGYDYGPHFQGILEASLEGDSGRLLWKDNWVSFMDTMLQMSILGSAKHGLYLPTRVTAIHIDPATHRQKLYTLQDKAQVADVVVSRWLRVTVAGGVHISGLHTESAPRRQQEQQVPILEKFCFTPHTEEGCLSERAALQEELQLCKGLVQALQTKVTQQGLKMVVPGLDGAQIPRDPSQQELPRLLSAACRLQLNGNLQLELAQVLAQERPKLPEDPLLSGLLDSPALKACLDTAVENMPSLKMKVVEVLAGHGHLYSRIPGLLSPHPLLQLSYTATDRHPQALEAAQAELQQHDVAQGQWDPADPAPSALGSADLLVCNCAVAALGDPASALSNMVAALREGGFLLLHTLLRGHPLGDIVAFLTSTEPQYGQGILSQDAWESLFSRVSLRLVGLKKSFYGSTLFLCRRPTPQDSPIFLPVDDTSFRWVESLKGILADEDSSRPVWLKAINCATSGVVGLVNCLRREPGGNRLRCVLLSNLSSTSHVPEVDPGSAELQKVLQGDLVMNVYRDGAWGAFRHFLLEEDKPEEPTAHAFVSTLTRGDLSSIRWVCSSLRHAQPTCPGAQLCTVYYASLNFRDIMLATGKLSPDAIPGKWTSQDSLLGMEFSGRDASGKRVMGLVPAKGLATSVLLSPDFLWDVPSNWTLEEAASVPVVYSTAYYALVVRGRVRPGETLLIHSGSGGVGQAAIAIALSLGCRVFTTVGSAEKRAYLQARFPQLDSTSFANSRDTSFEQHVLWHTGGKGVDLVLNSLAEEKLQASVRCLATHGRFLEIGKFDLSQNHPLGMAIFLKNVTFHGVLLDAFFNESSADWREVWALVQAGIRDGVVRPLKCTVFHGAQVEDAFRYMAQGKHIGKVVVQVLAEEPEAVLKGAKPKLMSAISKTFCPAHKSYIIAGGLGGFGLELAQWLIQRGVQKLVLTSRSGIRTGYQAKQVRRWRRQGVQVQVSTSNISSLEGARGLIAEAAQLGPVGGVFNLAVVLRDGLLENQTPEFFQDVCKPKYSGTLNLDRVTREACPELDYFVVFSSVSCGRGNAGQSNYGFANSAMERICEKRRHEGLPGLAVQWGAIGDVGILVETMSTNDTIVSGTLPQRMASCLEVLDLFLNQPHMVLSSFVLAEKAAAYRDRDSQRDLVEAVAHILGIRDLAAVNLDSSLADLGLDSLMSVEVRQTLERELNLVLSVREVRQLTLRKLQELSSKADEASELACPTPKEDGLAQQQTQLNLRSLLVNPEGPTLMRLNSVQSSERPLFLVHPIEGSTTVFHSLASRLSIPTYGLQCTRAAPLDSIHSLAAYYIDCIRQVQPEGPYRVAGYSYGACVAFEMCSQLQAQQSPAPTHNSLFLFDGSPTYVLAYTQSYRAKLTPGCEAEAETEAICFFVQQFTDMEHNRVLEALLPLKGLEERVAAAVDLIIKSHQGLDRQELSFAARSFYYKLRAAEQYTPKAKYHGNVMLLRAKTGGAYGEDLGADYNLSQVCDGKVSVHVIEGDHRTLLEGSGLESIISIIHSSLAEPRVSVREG
- EXPERIMENT: LTEA_HepaRG_FASN: Life Technologies and Expression Analysis (LTEA) Assay for Fatty Acid Synthase (FASN) using HepaRG (AID 2283448);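 as to AC50: differentiated human HepaRG liver cells in serum-free induction medium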
- PARTICULARS: mRNA level, 48 h; actives raise or lower the signal
Calls of active or inactive are those of the source. The calls were made as follows: active = hit-call score of the fitted dose curve at least 0.9, where 1 is the maximum; inactive = score below 0.9.
QUANTITY_MEASURED: AC50

Example results:
INSERT INTO measurements (molecule, quantity_measured, observed_value) VALUES
  ('CS/C(C)=N/OC(=O)N(C)SN(C)C(=O)O/N=C(\C)SC', 'AC50', 'inactive'),
  ('COP(=S)(OC)Oc1nc(Cl)c(Cl)cc1Cl', 'AC50', 'inactive'),
  ('CCON=C(CC)C1=C(O)CC(c2c(C)cc(C)cc2C)CC1=O (configuration not stated)', 'AC50', '50 µM (active)'),
  ('CCCCNC(=O)n1c(NC(=O)OC)nc2ccccc21', 'AC50', 'inactive'),
  ('CCOc1cc(Oc2ccc(C(F)(F)F)cc2Cl)ccc1[N+](=O)[O-]', 'AC50', '32 µM (active)');

List reported AC50 for each of these molecules:
1. N#Cc1nn(-c2c(Cl)cc(C(F)(F)F)cc2Cl)c(N)c1S(=O)C(F)(F)F (configuration not stated)
2. CCNc1nc(Cl)nc(NCC)n1
3. COC(=O)N(OC)c1ccccc1COc1ccn(-c2ccc(Cl)cc2)n1
4. CC(Oc1ccc(Cl)cc1Cl)C(=O)O (configuration not stated)
5. CN(C)C(=S)SSC(=S)N(C)C
6. CCCCOC(=O)c1ccccc1C(=O)OCCCC

## Output
1. 58.1 µM (active)
2. inactive
3. inactive
4. inactive
5. inactive
6. inactive

====

- EXPERIMENT: APR_HepG2_MitoMembPot_24hr: Apredica 24-hour HepG2 Assay for Mitochondrial Membrane Potential (AID 2282911)
- PARTICULARS: imaging, actives raise or lower the signal
Active and inactive are the calls of the source. How the source made its calls: active means hit-call score of the fitted dose curve at least 0.9, where 1 is the maximum; inactive means score below 0.9.
Use one of these outcomes when replying: Y (active), N (inactive)

Worked set:
INSERT INTO assay_data (molecule, qualitative_label) VALUES
  ('CCNc1nc(Cl)nc(NCC)n1', 'N'),
  ('CNC(=S)S', 'N'),
  ('CC(Oc1ccc(Cl)cc1Cl)C(=O)O (stereo not given)', 'N'),
  ('CCCCOC(=O)c1ccccc1C(=O)OCCCC', 'N'),
  ('CC(C)Oc1cc(-n2nc(C(C)(C)C)oc2=O)c(Cl)cc1Cl', 'N');

## Input Give the logged outcome of this assay for the following molecule: CCOC(=O)CC(SP(=S)(OC)OC)C(=O)OCC (stereo not given)
## Output N

## Input Moving on to the next molecule: COc1nc(NC(C)C)nc(NC(C)C)n1
## Output N

## Input Please do the same for CCCC1COC(Cn2cncn2)(c2ccc(Cl)cc2Cl)O1 (stereo not given) as well.
## Output Y
